system-under-test: SARS-CoV2 Mpro (Severe acute respiratory syndrome coronavirus 2 (2019-nCoV) (SARS-CoV-2), UniProt P0DTD1)
pIC50: −log10 of the molar value.
experimental-readout: pIC50

molecule	experimental-readout	reported
N#C[C@H](C[C@@H]1CCCNC1=O)NC(=O)C1CC2(CCC2)CN1C(=O)c1cc2c(Cl)cccc2[nH]1 (single isomer, unassigned) [803 (Isomer 1)]	pIC50	< 4.52
COc1ccc(Cl)c2[nH]c(C(=O)N3CC4(CCCCC4)CC3C(=O)N[C@H](C#N)C[C@@H]3CCNC3=O)cc12 (single isomer, unassigned) [882 (Isomer 1)]	pIC50	> 5.70
COC(=O)NS(=O)(=O)n1nccc1C(=O)N[C@@H](CC1CC1)C(=O)N[C@H](C#N)C[C@@H]1CCCNC1=O [Compound 1258]	pIC50	5.00 to 5.70
COc1cccc2[nH]c(C(=O)N3NCCC[C@H]3C(=O)N[C@H](C#N)C[C@@H]3CCNC3=O)cc12 [Compound 199]	pIC50	4.52 to 5.00
N#C[C@H](C[C@@H]1CCCNC1=O)NC(=O)[C@H](CC1CC1)NC(=O)c1ccn[nH]1 [Compound 872]	pIC50	5.00 to 5.70

---

system-under-test: 229E Mpro (Human coronavirus 229E (HCoV-229E), UniProt P0C6X1)
Sequence (P0C6X1 2966-3267 limits assumed): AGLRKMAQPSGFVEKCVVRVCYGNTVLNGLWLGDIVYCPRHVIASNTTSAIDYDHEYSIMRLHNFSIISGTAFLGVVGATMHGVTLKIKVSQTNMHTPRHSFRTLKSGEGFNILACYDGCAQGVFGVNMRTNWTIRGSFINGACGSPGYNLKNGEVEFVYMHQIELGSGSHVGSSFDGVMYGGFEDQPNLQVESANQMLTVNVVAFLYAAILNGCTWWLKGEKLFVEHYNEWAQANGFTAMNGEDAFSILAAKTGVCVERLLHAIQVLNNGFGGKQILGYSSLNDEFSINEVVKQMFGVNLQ
experiment-summary: 229E Mpro activity
Format: biochemical
condition-context: read-out: 229E Mpro EC50
pEC50: −log10 of the molar value.
experimental-readout: pEC50

compound	system-under-test	experimental-readout	reported
N#C[C@H](C[C@@H]1CCNC1=O)NC(=O)[C@H](CC1CC1)NC(=O)c1cc2c(OCCN3CCOCC3)cccc2[nH]1 [Compound 515]	229E Mpro (Human coronavirus 229E (HCoV-229E), UniProt P0C6X1)	pEC50	> 5.70
CC1(C)CC(C[C@@H](C#N)NC(=O)C2CC3(CCCCC3)CN2C(=O)c2cc3cccc(Cl)c3[nH]2)C(=O)N1 (single isomer, unassigned) [930 (Isomer 6)]	229E Mpro (Human coronavirus 229E (HCoV-229E), UniProt P0C6X1)	pEC50	> 5.70
N#C[C@H](C[C@@H]1CCCNC1=O)NC(=O)[C@H](CC1CC1)NC(=O)c1ccc(Cl)[nH]1 [Compound 864]	229E Mpro (Human coronavirus 229E (HCoV-229E), UniProt P0C6X1)	pEC50	> 5.70
CC[C@H]1CN(C(=O)c2cc3c(OC)cccc3[nH]2)[C@@H]1C(=O)N[C@H](C#N)C[C@@H]1CCNC1=O [Compound 391]	229E Mpro (Human coronavirus 229E (HCoV-229E), UniProt P0C6X1)	pEC50	< 4.52
N#C[C@H](C[C@@H]1CCCNC1=O)NC(=O)C1CC2(CCCCC2)CN1C(=O)c1cc2cccc(Cl)c2[nH]1 (single isomer, unassigned) [731 (Isomer 2)]	229E Mpro (Human coronavirus 229E (HCoV-229E), UniProt P0C6X1)	pEC50	4.52 to 5.00
COCCOCCOc1cccc2[nH]c(C(=O)NC(CC(C)(C)C)C(=O)NC(C#N)CC3CCCNC3=O)cc12 (single isomer, unassigned) [875 (Isomer 3)]	229E Mpro (Human coronavirus 229E (HCoV-229E), UniProt P0C6X1)	pEC50	4.52 to 5.00

---

Measured EC50 accompanies every entry in the list below.
system-under-test: 229E Mpro (Human coronavirus 229E (HCoV-229E))
experiment-summary: 229E Mpro activity
Assay type: biochemical
condition-context: read-out: 229E Mpro EC50

compound	EC50
COc1cccc2[nH]c(C(=O)N[C@@H](CC3CC3)C(=O)N[C@](C)(C#N)CC3CCNC3=O)cc12 (single isomer, unassigned) [1055 (Isomer 2)]	> 30000 nM
COc1cccc2[nH]c(C(=O)N[C@@H](CC(C)C)C(=O)N[C@@H](C[C@@H]3CCNC3=O)C(C#N)NC(C)(C)C)cc12 (single isomer, unassigned) [323 (Isomer 1)]	< 2000 nM
N#Cc1cccc2[nH]c(C(=O)N[C@@H](CC3CC3)C(=O)N[C@H](C#N)C[C@@H]3CCCNC3=O)cc12	< 2000 nM
N#C[C@H](C[C@@H]1CCNC1=O)NC(=O)C1CC2(CCCCC2)CN1C(=O)c1cc2cccc(Cl)c2[nH]1 (single isomer, unassigned) [984 (Isomer 1)]	< 2000 nM
COc1cccc2[nH]c(C(=O)N3CC4(CCC4)CC3C(=O)N[C@H](C#N)C[C@@H]3CCCNC3=O)cc12 (single isomer, unassigned) [719 (Isomer 2)]	< 2000 nM
N#C[C@H](C[C@@H]1CCNC1=O)NC(=O)[C@@H]1CCc2ccc(NCC(=O)Oc3ccccc3)c(=O)n21	> 30000 nM

---

system-under-test: 229E Mpro (Human coronavirus 229E (HCoV-229E), UniProt P0C6X1)
experiment-summary: 229E Mpro activity
Type: biochemical
condition-context: read-out: 229E Mpro EC50
pEC50: −log10 of the molar value.
Measured pEC50 accompanies every entry in the list below.
experimental-readout: pEC50

molecule	experimental-readout	reported
CC1(C)CC(C[C@@H](C#N)NC(=O)C2CC3(CCCCC3)CN2C(=O)c2cc3cccc(Cl)c3[nH]2)C(=O)N1 (single isomer, unassigned) [930 (Isomer 1)]	pEC50	< 4.52
COc1cccc2[nH]c(C(=O)N3C[C@H](C(C)(C)C)C[C@H]3C(=O)N[C@H](C#N)C[C@@H]3CCNC3=O)cc12 [Compound 655]	pEC50	4.52 to 5.00
COc1cccc2[nH]c(C(=O)N[C@@H](CC3CC3(F)F)C(=O)N[C@H](C#N)C[C@@H]3CCCNC3=O)cc12 (single isomer, unassigned) [1059 (Isomer 2)]	pEC50	4.52 to 5.00
COc1ccc(Cl)c2[nH]c(C(=O)N3CC4(CCCCC4)CC3C(=O)NC(C#N)C[C@@H]3CCCNC3=O)cc12 (single isomer, unassigned) [902 (Isomer 3)]	pEC50	> 5.70
COc1cc(Cl)cc2[nH]c(C(=O)N[C@@H](CC3CC3)C(=O)N[C@H](C#N)C[C@@H]3CCCNC3=O)cc12 [Compound 906]	pEC50	> 5.70
N#C[C@H](C[C@@H]1CCCNC1=O)NC(=O)[C@H](CC1CC1)NC(=O)c1cc(Cl)c(Cl)[nH]1 [Compound 866]	pEC50	> 5.70

---

system-under-test: 229E Mpro (Human coronavirus 229E (HCoV-229E), UniProt P0C6X1)
experiment-summary: 229E Mpro activity
Type: biochemical
condition-context: read-out: 229E Mpro EC50
experimental-readout: EC50

compound	experimental-readout	reported
COc1cccc2[nH]c(C(=O)N[C@@H](CC(C)C)C(=O)N[C@@H](CC3CCNC3=O)C(C#N)NCc3ccccc3)cc12 (single isomer, unassigned) [507 (Isomer 1.1)]	EC50	< 2000 nM
COc1ccc(Cl)c2[nH]c(C(=O)N3CC4(CCC4)CC3C(=O)N[C@H](C#N)C[C@@H]3CCNC3=O)cc12 (single isomer, unassigned) [992 (Isomer 2)]	EC50	> 30000 nM
N#C[C@H](C[C@@H]1CCNC1=O)NC(=O)[C@H](CC1CC1)NC(=O)c1cc2c(Cl)ccc(Cl)c2[nH]1	EC50	< 2000 nM
CCO[C@@H]1C[C@@H](C(=O)N[C@H](C#N)C[C@@H]2CCNC2=O)N(C(=O)c2cc3c(OC)cccc3[nH]2)C1 [Compound 535]	EC50	> 30000 nM
COc1ccc(Cl)c2[nH]c(C(=O)N[C@@H](CC3CC3)C(=O)N[C@H](C#N)C[C@@H]3CCCNC3=O)cc12	EC50	< 2000 nM
CC(C)(C)OC(=O)Nc1cccn([C@H](CC2CC2)C(=O)N[C@H](C#N)C[C@@H]2CCNC2=O)c1=O (single isomer, unassigned) [505 (Isomer 1)]	EC50	> 30000 nM
CC(C)C[C@H](NC(=O)c1nc2ncccc2[nH]1)C(=O)N[C@H](C#N)C[C@@H]1CCNC1=O	EC50	< 2000 nM
N#C[C@H](C[C@@H]1CCNC1=O)NC(=O)C1CC2(CCC2)CN1C(=O)c1cc2ccc(Cl)c(Cl)c2[nH]1 (single isomer, unassigned) [814 (Isomer 2)]	EC50	< 2000 nM
COc1cccc2[nH]c(C(=O)N[C@@H](CC(C)C)C(=O)NC(C#N)Cc3cc[nH]n3)cc12 (mixture of isomers)	EC50	> 30000 nM
CCNC(C#N)[C@H](C[C@@H]1CCNC1=O)NC(=O)[C@H](CC(C)C)NC(=O)c1cc2c(OC)cccc2[nH]1 (single isomer, unassigned) [511 (Isomer 2)]	EC50	< 2000 nM
CCO[C@@H]1C[C@@H](C(=O)N[C@H](C#N)C[C@@H]2CCNC2=O)N(C(=O)c2cc3c(OC)cccc3[nH]2)C1 [Compound 409]	EC50	> 30000 nM
N#C[C@H](C[C@@H]1CCCNC1=O)NC(=O)C1CC2(CCCCC2)CN1C(=O)c1cc2c(Cl)cccc2[nH]1 (single isomer, unassigned) [801 (Isomer 2)]	EC50	10000 to 30000 nM
N#C[C@H](C[C@@H]1CCNC1=O)NC(=O)[C@H](CC1CC1)NC(=O)c1nc2c(Cl)cc(Cl)cc2[nH]1	EC50	< 2000 nM
COc1cccc2[nH]c(C(=O)N3CC(C)(C)C[C@H]3C(=O)N[C@H](C#N)C[C@@H]3CCNC3=O)cc12 (single isomer, unassigned) [395 (Isomer 1)]	EC50	< 2000 nM
COc1nccc2[nH]c(C(=O)N[C@@H](CC3CC3)C(=O)N[C@H](C#N)C[C@@H]3CCCNC3=O)cc12	EC50	> 30000 nM
COc1cccc2[nH]c(C(=O)N[C@@H](CC(C)C)C(=O)N[C@@H](C[C@@H]3CCNC3=O)C(N)C#N)cc12 (stereo partly drawn) [Compound 344C]	EC50	< 2000 nM
COc1cccc2[nH]c(C(=O)N3C[C@H](OC)C[C@H]3C(=O)N[C@H](C#N)C[C@@H]3CCNC3=O)cc12	EC50	< 2000 nM
COc1cccc2[nH]c(C(=O)N3CC4(CCCCC4)CC3C(=O)N[C@H](C#N)C[C@@H]3CCNC3=O)cc12 (single isomer, unassigned) [389A (Isomer 1)]	EC50	< 2000 nM
CC1(C)CCC(C[C@@H](C#N)NC(=O)[C@H](CC2CC2)NC(=O)c2cc3cccc(Cl)c3[nH]2)C(=O)N1 (single isomer, unassigned) [Compound 749 (Isomer 2)]	EC50	2000 to 10000 nM
COc1cccc2[nH]c(C(=O)N[C@H](CC3CC3)C(=O)N[C@@H](C#N)C[C@@H]3CCCNC3=O)cc12 (single isomer, unassigned) [491 (Isomer 4)]	EC50	< 2000 nM
COc1ccc(Br)c2[nH]c(C(=O)N[C@@H](CC3CC3)C(=O)N[C@H](C#N)C[C@@H]3CCCNC3=O)cc12	EC50	< 2000 nM
N#C[C@H](C[C@@H]1CCCNC1=O)NC(=O)C1CC2(CCC2)CN1C(=O)c1cc2ccc(Cl)cc2[nH]1 (single isomer, unassigned) [791 (Isomer 2)]	EC50	< 2000 nM
COc1cccc2[nH]c(C(=O)N3C[C@H]4CCC[C@H]4[C@H]3C(=O)N[C@H](C#N)C[C@@H]3CCNC3=O)cc12	EC50	< 2000 nM
N#C[C@H](C[C@@H]1CCCNC1=O)NC(=O)[C@H](CC1CC1)NC(=O)c1[nH]c2cc(Br)ccc2c1F	EC50	< 2000 nM
